- System: 786-0 renal
- EXPERIMENT DESCRIPTION: NCI-60 one-dose screen, 48 h (100 = growth as untreated, 0 = no growth, -100 = all killed)
- CONDITION NOTES: 10 µM unless noted
This is part of a sample that, as a whole, favours compounds with a hit. Of some 83,000 tested, about 20% had one in any assay.
RESULT TYPE: growth (%)
Lab book: enter the figure in %, no units written.

# example entries with known answers
# MOLECULE, UNITS SYMBOL, growth
rows = [
    ("Cc1cc(N2CCCCC2)cc(C)c1-c1csc(NC(=O)c2ccncc2)n1", "%", 77.5),
    ("C/C(=N\\O)c1ccc(Cl)cc1", "%", 107),
    ("COc1cc2c(cc1OCCCN1CCN(CCCOc3cc4c(cc3OC)C(=O)N3CC(F)(F)C[C@H]3C=N4)CC1)N=C[C@@H]1CC(F)(F)CN1C2=O", "%", 86.2),
    ("N=C(N)c1ccc(-c2ccc(-c3ccc(Cl)c(Cl)c3)s2)nc1", "%", -25.8),
    ("O=C1/C(=C\\c2ccc3nccnc3c2)SC(=S)N1CCc1ccc(O)cc1", "%", 60.6),
    ("CN(/C(N)=N/N=C/c1c2ccccc2cc2ccccc12)C1CCCCC1", "%", 49.5),
]

Please report the recorded growth for `O=[N+]([O-])c1cccc(-c2nc3cc4nc5ccccc5[nH]c4cc3n2)c1` . 91.9

One more molecule: C=C(C)[C@@H]1CC[C@]2(C(=O)O)CC[C@]3(C)[C@H](CC[C@@H]4[C@@]5(C)CCC(NC(=O)c6cccc(OC(C)=O)c6OC(C)=O)C(C)(C)[C@@H]5CC[C@]43C)[C@@H]12 (some centres not stated) -3.81

One more molecule: `COC(=O)[C@@H](CCCCNC(=O)[C@]12CCC(C)(C)C[C@@H]1C1=CC[C@@H]3[C@@]4(C)C/C(=C/c5ccco5)C(=O)C(C)(C)[C@@H]4CC[C@@]3(C)[C@]1(C)CC2)NC(=O)[C@]12CCC(C)(C)C[C@@H]1C1=CC[C@@H]3[C@@]4(C)C/C(=C/c5ccco5)C(=O)C(C)(C)[C@@H]4CC[C@@]3(C)[C@]1(C)CC2` 104

One more molecule: `CN(C)S(=O)(=O)c1cccc(C(=O)Nc2nc(-c3ccc(F)c(F)c3)cs2)c1` 64.9

One more molecule: `O=C(Nc1cccc(-c2ccc(Cl)c(C(F)(F)F)c2)c1)C1CCN(Cc2cccc3cccnc23)CC1` 31.9

One more molecule: `Oc1c(Br)cc(Br)c2ccc(Cn3cc(-c4ccc(C(F)(F)F)cc4)nn3)nc12` 96.9

One more molecule: O=C1NC(=O)C(Cc2ccc(OCc3ccc(-c4ccc(Cl)cc4Cl)cc3)cc2)S1 (configuration not stated) 63.8

One more molecule: `CCOC(=O)c1ccc2c(c1)nc(-c1ccccc1)n2C1CCCCC1` 88.5

One more molecule: COc1ccc(C2CC(c3ccc(Nc4nc(Nc5ccccc5)nc(Nc5ccccc5)n4)cc3)=NN2C(C)=O)cc1 (configuration not stated) 88.5

One more molecule: `O=C(/C=C/c1cccc(Cl)c1)c1ccc(Nc2nc(Nc3ccc(F)cc3)nc(Nc3ccc(Cl)cc3)n2)cc1` 99.1

One more molecule: `CN1CCc2nc3sc(C(N)=O)c(N)c3c(-c3cccs3)c2C1` 9.22

###

- System: CAKI-1 renal
- EXPERIMENT DESCRIPTION: NCI-60 one-dose screen, 48 h (100 = growth as untreated, 0 = no growth, -100 = all killed)
- CONDITION NOTES: 10 µM unless noted
This is part of a sample that, as a whole, favours compounds with a hit. Of some 83,000 tested, about 20% had one in any assay.
Just so you know, the groups by growth go like this: low class: < 30%; middle class: ≥ 30% and < 80%; high class: ≥ 80%

Some entries whose results are on file:
# MOLECULE, STUDY TARGET, DISCRETE LABEL
records = [
    ("O=C1NC(=O)C(Cc2ccc(OCc3ccc(-c4ccc(Cl)cc4Cl)cc3)cc2)S1 (stereo not drawn)", "CAKI-1 renal", "middle class"),
    ("Cc1cn(-c2cc(NC(=O)c3cncc(C#Cc4cnc(N)c5ncccc45)c3)cc(C(F)(F)F)c2)cn1", "CAKI-1 renal", "high class"),
    ("CCCCC1=C(P(=O)(O)O)N[C@H](C(=O)O)CS1", "CAKI-1 renal", "high class"),
    ("COC(=O)/C=C1/SC(=Nc2ccc(C(F)(F)F)cc2)N(CCc2c[nH]c3ccc(O)cc23)C1=O", "CAKI-1 renal", "middle class"),
    ("COc1ccc(C(O)c2cc3c(N)c(C(=O)Nc4cccc(Br)c4)sc3nc2C)cc1 (stereo not drawn)", "CAKI-1 renal", "low class"),
]

# classify by growth band: `Cc1c2cnccc2c(C)c2c1c1cc(C#N)ccc1n2C` low class

One more molecule: `Clc1cc(Cl)c(Cl)c(-c2nnc(SCc3ccncc3Br)o2)c1` middle class

One more molecule: `O=S(=O)(NCCNc1nccc(-c2c(-c3ccc(F)c(O)c3)nc3sccn23)n1)c1ccc(O)cc1` low class

One more molecule: `Cc1ccccc1/C=C/C(=O)c1cccc(OCCCCOc2cccc(C(=O)/C=C/c3ccccc3C)c2)c1` high class

###

- System: HS 578T breast
- EXPERIMENT DESCRIPTION: NCI-60 one-dose screen, 48 h (100 = growth as untreated, 0 = no growth, -100 = all killed)
- CONDITION NOTES: 10 µM unless noted
Compounds without any hit were thinned out: in the full panel of roughly 83,000, 20% have a hit. Active and inactive are the calls of the source. Rule for the calls: active = growth percent below 10; inactive = the rest.
molecules and their reported growth

# SMILES STR, STUDY TARGET, REPORTED RESULT
rows = [
    ("COC(=O)[C@@H](CCCCNC(=O)[C@]12CCC(C)(C)C[C@@H]1C1=CC[C@@H]3[C@@]4(C)C/C(=C/c5ccco5)C(=O)C(C)(C)[C@@H]4CC[C@@]3(C)[C@]1(C)CC2)NC(=O)[C@]12CCC(C)(C)C[C@@H]1C1=CC[C@@H]3[C@@]4(C)C/C(=C/c5ccco5)C(=O)C(C)(C)[C@@H]4CC[C@@]3(C)[C@]1(C)CC2", "HS 578T breast", "104% (inactive)"),
]

We now examine a further molecule.
Please report the recorded growth for `CSc1nc(N)c(NS(=O)(=O)c2ccc(C(C)=O)cc2)c(=O)[nH]1` . 105% (inactive)

###

- Tested on: MDA-MB-231 breast
- EXPERIMENT DESCRIPTION: NCI-60 one-dose screen, 48 h (100 = growth as untreated, 0 = no growth, -100 = all killed)
- CONDITION NOTES: 10 µM unless noted
The panel holds about 83,000 compounds, 20% with a hit somewhere; the sample as a whole holds those more often.
compounds and their reported growth
Lab book: enter the figure in %, no units written.

# SMILES STR, growth / %
measured = [
    ("COc1ccc2c(c1)c(-c1nc(-c3c[nH]c4ccncc34)cs1)cn2C", -81.8),
    ("CCN(CC)CCCCCNc1cc(OC(=O)c2ccc(Cl)cc2)cc2cccnc12", 85.8),
    ("OCCn1cc(-c2nc(-c3c[nH]c4ncccc34)cs2)c2cc(F)ccc21", 64.5),
]

Please report the recorded growth for `COc1ccc2[nH]c(C(=O)N3CCN(C(=O)OCc4ccc5c(Cl)cc(Cl)c(O)c5n4)CC3)cc2c1` . -82.2

One more compound: `O=C(NCCNc1nccc(Nc2ccc(S(=O)(=O)Nc3ccccn3)cc2)n1)c1cccc([N+](=O)[O-])c1` 118

###

- Test system: IGROV1 ovarian
- EXPERIMENT DESCRIPTION: NCI-60 one-dose screen, 48 h
- CONDITION NOTES: 10 µM unless noted
This is part of a sample that, as a whole, favours compounds with a hit. Of some 83,000 tested, about 20% had one in any assay. The source made the active and inactive calls. How the source made its calls: active means growth percent below 10; inactive means the rest.
Pick one: yes (1) for active, no (0) for inactive

# COMPOUND, DISCRETE LABEL
data = [
    ("N#Cc1c(-c2ccccc2)cc(-c2ccc(Nc3nc(Nc4ccc(Cl)cc4)nc(Nc4ccc(Cl)cc4)n3)cc2)nc1N", "yes (1)"),
    ("CSc1nc2ccccc2cc1/C=[N+](\\[O-])c1ccccc1", "no (0)"),
    ("N#CC(C#N)N=Nc1ccc(Br)cc1", "no (0)"),
    ("CCCCCN1C(=O)/C(=c2\\sc3n(c2=O)C2C(NN=3)N(CC)C(=O)N2CC)c2ccccc21 (centres undefined)", "yes (1)"),
]

Which outcome did this test record for the compound `NS(=O)(=O)c1ccc(N=Nc2c(O)n(Cc3ccccc3)c3ccc(Cl)cc23)cc1` ? no (0)

One more compound: `O=C1C(Cl)=C(Nc2ccc(S(=O)(=O)N3CCOCC3)cc2)C(=O)c2ccccc21` no (0)

One more compound: COc1cc2c(cc1OC)C(C)N(S(N)(=O)=O)CC2 (centres undefined) no (0)

One more compound: `Clc1cc(Cl)c(Cl)c(-c2nnc(SCc3ccncc3Br)o2)c1` no (0)

One more compound: COC(=O)CC[C@H](C)[C@H]1CC[C@H]2[C@@H]3CC[C@@H]4CC5(CC[C@]4(C)[C@H]3CC(=O)[C@]12C)Nc1ccccc1NC5=NC(C)(C)C (some centres undefined) no (0)

One more compound: COc1ccc(C2CC(c3ccc(Nc4nc(Nc5ccccc5)nc(Nc5ccccc5)n4)cc3)=NN2C(C)=O)cc1 (centres undefined) no (0)

One more compound: `O=C(N(c1ccccc1)c1ccccc1)n1cc(I)c2nc(Cl)nc(Cl)c21` no (0)

One more compound: `CCCCNC(=O)Oc1ccc(/C(=C(/C)Cc2ccc(OC)cc2)c2ccc(OCCN(CC)CC)cc2)cc1` no (0)

One more compound: `C=CCSc1nnc(NC(=O)CCl)s1` no (0)

One more compound: `COc1ccc(-c2ccc(-c3ccc(C(=N)N)cc3)s2)cc1Cl` yes (1)

One more compound: `O=C1c2ccc3c4c5ccc(c24)C(=O)N1CCCOCCCCOCCCNCc1ccc(cc1)CNCCCOCCCCOCCCN(C3=O)C5=O` yes (1)

One more compound: `O=S(=O)(Nc1cc(Cl)ccc1Cl)c1ccc(-c2cnc(C3CC3)o2)cc1` no (0)

One more compound: O=CN1N=C(c2cccc(Nc3ccnc4cc(Cl)ccc34)c2)CC1c1ccccc1 (centres undefined) no (0)

One more compound: `N=C(N)c1ccc(-c2ccc(-c3ccccc3)o2)cc1` yes (1)

One more compound: `Cn1ccnc1C(=O)/C=C/c1ccc(CC(=O)Nc2cc(C(F)(F)F)cc(C(F)(F)F)c2)cc1` no (0)

One more compound: `O=c1[nH]c(Cc2nc3ccccc3s2)nc2cc(Br)ccc12` no (0)

One more compound: `COC(=O)c1nc(-c2ccc(C)cc2)oc1S(=O)(=O)c1cccc(OC)c1` no (0)

One more compound: `Cc1sc2nc(NCCc3c[nH]c4ccc(Cl)cc34)[nH]c(=O)c2c1C` no (0)

Data provenance: PubChem BioAssay (NCI)
